For each entry below, report its pEC50 value.
assayed-system: T1, Fusion protein of LAG-3 extracellular region and mIgG2a Fc (human)
T1 construct: Limits of the signal peptide are marked only by lost underlining; also called LAG-3-mFc; LAG-3-mFc fusion protein
T1 chain: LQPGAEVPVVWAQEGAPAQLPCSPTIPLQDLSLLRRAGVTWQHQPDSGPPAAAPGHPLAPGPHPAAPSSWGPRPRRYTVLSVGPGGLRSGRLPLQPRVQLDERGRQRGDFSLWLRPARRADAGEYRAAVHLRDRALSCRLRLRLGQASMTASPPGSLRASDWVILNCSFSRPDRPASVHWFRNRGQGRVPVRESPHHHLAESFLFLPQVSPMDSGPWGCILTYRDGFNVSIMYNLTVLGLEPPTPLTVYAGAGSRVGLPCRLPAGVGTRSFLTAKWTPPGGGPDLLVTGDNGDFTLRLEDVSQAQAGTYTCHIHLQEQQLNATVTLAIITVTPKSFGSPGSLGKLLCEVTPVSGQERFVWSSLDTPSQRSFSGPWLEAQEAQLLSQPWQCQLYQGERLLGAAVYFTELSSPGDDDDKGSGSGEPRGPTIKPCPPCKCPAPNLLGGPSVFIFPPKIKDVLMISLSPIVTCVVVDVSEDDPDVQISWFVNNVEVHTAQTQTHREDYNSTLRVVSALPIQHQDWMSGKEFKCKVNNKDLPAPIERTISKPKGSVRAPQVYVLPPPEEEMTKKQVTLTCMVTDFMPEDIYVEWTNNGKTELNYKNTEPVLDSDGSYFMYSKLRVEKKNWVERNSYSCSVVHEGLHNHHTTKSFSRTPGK
protocol-description: ELISA, LAG-3-mFc captured by anti-mouse Fc on plate (which fusion: inferred)
Give bare numbers, as −log10 of the molar value.

{"binder": "Hu303-012 (antibody, human IgG4 S228P, kappa, V domains shown, Humanized mAb303) VH: QVQLVQSGAEVKKPGASVKVSCKASGYTFTDYYMNWVRQAPGQRLEWMGVINPYNGDTAYNQKFKGRVTITVDKSASTAYMELSSLRSEDTAVYYCTRDDGYYDYYFDVWGQGTTVTVSS VL: DIQMTQSPSSLSASVGDRVTITCRASQDIGSRLNWLQQKPGKAFKRLIYATSTLDSGVPKRFSGSRSGTDFTLTISSLQPEDFATYYCLQLASSPPTFGGGTKVEIKR", "pEC50": 9.79}
{"binder": "Hu303-017 (antibody, human IgG4 S228P, kappa, V domains shown, Humanized mAb303) VH: QVQLVQSGAEVKKPGASVKVSCKASGYTLTDYYMNWVRQAPGQRLEWMGVINPYNGDTAYNQKFKGRVTITVDKSASTAYMELSSLRSEDTAVYYCTRDDGYYDYYFDVWGQGTTVTVSS VL: DIQMTQSPSSLSASVGDRVTITCRASQDIGSRLNWLQQKPGKAFKRLIYATSTLDSGVPKRFSGSRSGTDFTLTISSLQPEDFATYYCLQLASSPPTFGGGTKVEIKR", "pEC50": 9.77}
{"binder": "Hu303-023 (antibody, human IgG4 S228P, kappa, V domains shown, Humanized mAb303) VH: QVQLVQSGAEVKKPGASVKVSCKASGYTLTDYYMNWVRQAPGQRLEWIGVINPYNGDTAYNQKFKGRATLTVDKSASTAYMELSSLRSEDTAVYYCTRDDGYYDYYFDVWGQGTTVTVSS VL: DIQMTQSPSSLSASVGDRVTLTCRASQDIGSRLNWLQQKPGGAFKRLIYATSTLDSGVPKRFSGSRSGTDFTLTISSLQPEDFADYYCLQLASSPPTFGGGTKVEIKR", "pEC50": 9.82}
{"binder": "Hu229-014 (antibody, human IgG4 S228P, kappa, V domains shown, Humanized mAb229) VH: QVQLVQSGSELKKPGASVKVSCKASGYTFTTSGMSWVKQAPGQGLKWMGWINTYSGVPTYADDFKGRFVFSLDTSVSTAYLQISSLKAEDTATYYCARDNYDARDVYYYAMDYWGQGTTVTVSS VL: DIQMTQSPSSLSASVGDRVTITCRASENIYSNLAWYQQKPGKAPKLLVYAATNLADGVPSRFSGSGSGTQYTLTISSLQPEDFATYYCQHFWITPWTFGGGTKVEIKR", "pEC50": 9.82}

In: I'd like to know its pEC50. The binder in question is Hu303-020 (antibody, human IgG4 S228P, kappa, V domains shown, Humanized mAb303) VH: QVQLVQSGAEVKKPGASVKVSCKASGYTLTDYYMNWVRQAPGQRLEWIGVINPYNGDTAYNQKFKGRATLTVDKSASTAYMELSSLRSEDTAVYYCTRDDGYYDYYFDVWGQGTTVTVSS VL: DIQMTQSPSSLSASVGDRVTITCRASQDIGSRLNWYQQKPGKAPKRLIYATSTLDSGVPSRFSGSRSGTDFTLTISSLQPEDFATYYCLQLASSPPTFGGGTKVEIKR
Out: 9.85

Source: patent US20220031842A1
